Values from paper PMC8865417

In what follows, each item is paired with its pKi for h5-HT2C receptor (Homo sapiens).
Scale explanation: pKi corresponds to minus log10 of a concentration expressed in moles per litre.

{"molecule": "COc1cc(CCN)cc(OC)c1OCCCF", "pKi": 5.28}
{"molecule": "CCCOc1c(OC)cc(CC(C)N)cc1OC (stereo not shown)", "pKi": 5.70}

// pKi value for COc1cc(CCN)cc(OC)c1OC(F)(F)F : 6.54

// pKi value for CCOc1c(OC)cc(CC(C)N)cc1OC (stereo not shown) : 5.31

// pKi value for C=CCOc1c(OC)cc(CC(C)N)cc1OC (stereo not shown) : 5.77

// pKi value for COc1cc(CC(C)N)cc(OC)c1OC(F)F (stereo not shown) : 5.43

// pKi value for C=C(C)COc1c(OC)cc(CCN)cc1OC : 6.28

// pKi value for COc1cc(CCN)cc(OC)c1OC : 5.00

// pKi value for COc1cc(CC(C)N)cc(OC)c1OCC(F)F (stereo not shown) : 5.59
